All values here come from paper PMC2361651.

- ASSAY_COMMENT: Plasma pharmacokinetics of SU5416 and metabolites in Phase I patients (HPLC UV)
- Assay type: in vivo, human
- ASSAY_SETUP: human, in vivo, range over the 25 evaluable patients; read-out: Plasma clearance (CL)
ENDPOINT: clearance

Ask: Query (compound): Cc1cc(C)c(/C=C2\C(=O)Nc3ccccc32)[nH]1 ; field requested: clearance
Result: 767 to 3580 mL/min

====

- ASSAY_COMMENT: Plasma pharmacokinetics of SU5416 and metabolites in Phase I patients (HPLC UV)
- Type: in vivo, human
- ASSAY_SETUP: human, plasma, iv, 85 mg m^−2, individual patients, twice weekly i.v. infusion, dose 85 mg m^−2, cycle 1inj8
ENDPOINT: AUC(0-t)
Could you give the number and then its unit, please?

Ask: Given Cc1cc(C)c(/C=C2\C(=O)Nc3ccccc32)[nH]1 , state its recorded AUC(0-t).
Result: 2380 ng·h/mL

====

- ASSAY_COMMENT: Plasma pharmacokinetics of SU5416 and metabolites in Phase I patients (HPLC UV)
- Format: in vivo, human
- ASSAY_SETUP: human, plasma, iv, 65 mg m^−2, individual patients, twice weekly i.v. infusion, dose 65 mg m^−2, cycle 1inj3; read-out: CL (observed) (converted)
ENDPOINT: clearance (mL/min)
Provide only the numeric value, understood in mL/min.

Ask: Entry Cc1cc(C)c(/C=C2\C(=O)Nc3ccccc32)[nH]1 : reported clearance = ?
Result: 3170

====

- ASSAY_COMMENT: Plasma pharmacokinetics of SU5416 and metabolites in Phase I patients (HPLC UV)
- Format: in vivo, human
- ASSAY_SETUP: human, plasma, iv, 110 mg m^−2, individual patients, twice weekly i.v. infusion, dose 110 mg m^−2, cycle 1inj2; read-out: T1/2λz (converted)
ENDPOINT: half-life (min)
Report the figure in min without appending any unit label.

Ask: Fill in: half-life of Cc1cc(C)c(/C=C2\C(=O)Nc3ccccc32)[nH]1 is ___
Result: 37.2

====

- ASSAY_COMMENT: Plasma pharmacokinetics of SU5416 and metabolites in Phase I patients (HPLC UV)
- Format: in vivo, human
- ASSAY_SETUP: human, in vivo, iv, 145 mg m^−2, individual patients, twice weekly i.v. infusion, dose 145 mg m^−2, cycle 2inj8; read-out: T1/2λz (converted)
ENDPOINT: half-life (min)
Give just the number in min; leave the unit off.

Ask: Tell me the measured half-life of Cc1cc(C)c(/C=C2\C(=O)Nc3ccccc32)[nH]1 , please.
Result: 43.2

====

- ASSAY_COMMENT: Plasma pharmacokinetics of SU5416 and metabolites in Phase I patients (HPLC UV)
- Type: in vivo, human
- ASSAY_SETUP: human, plasma, iv, 65 mg m^−2, individual patients, twice weekly i.v. infusion, dose 65 mg m^−2, cycle 1inj8; read-out: Vz (observed)
ENDPOINT: Vd (L)
Write down the numeric answer in L and omit the unit.

Ask: For Cc1cc(C)c(/C=C2\C(=O)Nc3ccccc32)[nH]1 , what is its reported Vd?
Result: 78

====

- ASSAY_COMMENT: Plasma pharmacokinetics of SU5416 and metabolites in Phase I patients (HPLC UV)
- Type: in vivo, human
- ASSAY_SETUP: human, plasma, iv, 85 mg m^−2, individual patients, twice weekly i.v. infusion, dose 85 mg m^−2, cycle 1inj8; read-out: CL (observed) (converted)
ENDPOINT: clearance (mL/min)
Write the number in mL/min without appending the unit.

Ask: Which clearance is listed for Cc1cc(C)c(/C=C2\C(=O)Nc3ccccc32)[nH]1 ?
Result: 1000
